Tested on: lambsquarters (Chenopodium album)
experiment description: Test F pre-/postemergence plant response
Format: in vivo
measurement context: Chenopodium album, pre-emergence; Preemergence; scale 0 to 100; read-out: Plant response rating, Lambsquarters
property label: pest or weed control at 62 g/ha (%)
Just the number in %, nothing appended.

Solved entries:
query: Item FC(F)c1cc(-c2ccccc2Oc2ncc(Cl)cn2)on1 [Compound 53] has what recorded pest or weed control at 62 g/ha?
result: 95

query: Item FC(F)c1cc(-c2ccccc2Oc2ncc(Br)cn2)no1 [Compound 62] has what recorded pest or weed control at 62 g/ha?
result: 95

query: Item Fc1cccc(Oc2ncc(Cl)cn2)c1-c1cc(C(F)F)no1 [Compound 144] has what recorded pest or weed control at 62 g/ha?
result: 100

Pending molecule:
query: Item Fc1cccc(Oc2ncc(Cl)cn2)c1-c1cc(C(F)(F)F)on1 [Compound 168] has what recorded pest or weed control at 62 g/ha?
result: 100

Entry source: patent US10131652B2
